B1: library; a variant is named by its letters at N, in order (parent)
chain: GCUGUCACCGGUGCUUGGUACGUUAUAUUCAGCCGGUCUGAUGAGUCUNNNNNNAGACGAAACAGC

Variants of: B1
measurement notes: normalized RNA/DNA level without ligand (relative to sTRSVctl = 100) (log10 (% of sTRSVctl)); HEK293T overexpressing SLC46A1; higher = less ribozyme self-cleavage, higher mRNA level
condition info: without (6R,S)-folinic acid; ligand present: no
The threshold is inclusive: normalized RNA/DNA level without ligand (log10) of exactly 2 counts as yes (1); values below receive no (0).

Previously resolved entries follow.
GGGUCG : yes (1)
GUAUAG : no (0)
AACUUG : no (0)

Please find the next variant below.
Problem: # check: normalized RNA/DNA level without ligand (log10) of AAAACG is greater than or equal to 2
Solution: no (0)
